# Tested system: T1, Anti-CD28 scFv (VH-linker 1-VL) (biotinylated (site not stated))
# T1 construct: biotinylated and captured on neutravidin coated plates in the phage ELISA
# T1 sequence (scFv, as listed by the source): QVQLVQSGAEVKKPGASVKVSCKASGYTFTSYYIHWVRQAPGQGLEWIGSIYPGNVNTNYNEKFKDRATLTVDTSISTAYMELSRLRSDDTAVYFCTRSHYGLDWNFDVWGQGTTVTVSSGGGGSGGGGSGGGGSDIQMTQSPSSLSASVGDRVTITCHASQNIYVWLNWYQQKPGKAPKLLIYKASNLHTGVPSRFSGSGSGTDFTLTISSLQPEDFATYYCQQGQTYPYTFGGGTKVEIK
# Protocol: phage binding ELISA on captured anti-CD28 scFv, wells pre-incubated with soluble CD28 (competitor);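 also: crude clonal phage supernatants added without washing, bound phage detected by HRP-conjugated anti-M13 antibody, control wells held blocking buffer alone instead of CD28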
binders and their reported CD28 scFv signal in presence of CD28

Binder | CD28 scFv signal in presence of CD28
MDWCPRDLWTQCFF [Phage-343] | 0.119
MDWCPRNLWAECFS [Phage-379] | 0.08
MDWCPRNMWNECFF [Phage-398] | 0.43
